Kindly supply the reported IC50 values for the records listed here.
- tgt: human recombinant Btk (Homo sapiens (Human))
- Sequence (Q06187 whole entry): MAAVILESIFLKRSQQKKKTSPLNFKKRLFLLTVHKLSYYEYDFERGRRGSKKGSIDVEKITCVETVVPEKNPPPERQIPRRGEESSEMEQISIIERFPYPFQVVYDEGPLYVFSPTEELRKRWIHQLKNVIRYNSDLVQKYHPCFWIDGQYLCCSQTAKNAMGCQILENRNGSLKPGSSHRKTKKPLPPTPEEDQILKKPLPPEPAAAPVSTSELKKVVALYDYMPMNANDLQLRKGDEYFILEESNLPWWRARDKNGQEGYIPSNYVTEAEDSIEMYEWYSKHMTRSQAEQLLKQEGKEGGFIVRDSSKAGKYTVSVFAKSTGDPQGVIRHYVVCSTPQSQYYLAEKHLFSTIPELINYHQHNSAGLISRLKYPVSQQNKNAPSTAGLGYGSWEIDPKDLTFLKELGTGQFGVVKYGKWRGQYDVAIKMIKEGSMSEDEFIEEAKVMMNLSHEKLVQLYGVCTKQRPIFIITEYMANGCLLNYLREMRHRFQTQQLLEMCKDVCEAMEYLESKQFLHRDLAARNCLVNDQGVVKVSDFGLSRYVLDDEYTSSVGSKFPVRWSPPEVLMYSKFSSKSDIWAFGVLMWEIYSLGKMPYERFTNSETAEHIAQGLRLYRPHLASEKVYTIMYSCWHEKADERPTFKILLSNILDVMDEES
- measurement notes: Human Recombinant Btk Enzyme Assay
- Assay type: biochemical
I only need the number, in nM, no unit after it.

Which measured IC50 value corresponds to Cc1c(-c2c(F)cc(C(N)=O)c3[nH]c4cc(C(C)(C)O)ccc4c23)cccc1-n1c(=O)[nH]c2c(F)cc(F)cc2c1=O (single isomer, unassigned) [Example 50] ? 0.32

Which measured IC50 value corresponds to Cc1c(-c2c(F)cc(C(N)=O)c3[nH]c4cc(C(C)(C)O)ccc4c23)cccc1-n1c(=O)[nH]c2c(F)cc(F)cc2c1=O [Example 49] ? 0.77

Which measured IC50 value corresponds to Cc1c(-c2c(Cl)cc(C(N)=O)c3[nH]c4cc(C(C)(C)O)ccc4c23)cccc1-n1c(=O)[nH]c2c(F)cc(F)cc2c1=O (single isomer, unassigned) ? 0.33

Which measured IC50 value corresponds to Cc1cc(C(N)=O)c2[nH]c3cc(C(C)(C)O)ccc3c2c1-c1cccc(-n2c(=O)[nH]c3c(F)cccc3c2=O)c1C (single isomer, unassigned) ? 0.34
